As shown below, each of these compounds has a reported DC50 value.
Biological target: α-synuclein aggregates (Homo sapiens (Human), UniProt P37840)
Assay: ReNcell VM α-synuclein aggregation assay
Assay type: cell-based
Conditions: ReNcell VM cells; read-out: Activity (DC50, concentration at which 50% of α-synuclein aggregates has been degraded)
Endpoint label: DC50

>>> test_result("CN(C)c1ccc(-c2ccc(-c3nc4ccc(OC(=O)CCOCCOc5ccc6c(c5)CN(C5CCC(=O)NC5=O)C6=O)cc4s3)cc2)cn1 (stereo not drawn) [Compound 175552]")
"> 10 µM"
>>> test_result("COc1cc(-c2ccc(N(C)C)nc2)ccc1-c1nc2ccc(NCCOCCOc3ccc4c(c3)CN(C3CCC(=O)NC3=O)C4=O)cc2s1 (stereo not drawn) [Compound 129071]")
"> 10 µM"
>>> test_result("CN(C)c1ccc(-c2ccc(-c3nc4ccc(NC(=O)CCOCCOc5ccc6c(c5)CN(C5CCC(=O)NC5=O)C6=O)cc4s3)cc2)cn1 (stereo not drawn) [Compound 170358]")
"> 10 µM"

* * *

Assay: In vivo pharmacokinetic study
Conditions: mouse; Brain, 10 mg/kg intravenous, mice
Endpoint label: half-life

>>> test_result("CN(C)c1ccc(-c2ccc(-c3nc4ccc(NCCCCCOc5ccc6c(c5)CN(C5CCC(=O)NC5=O)C6=O)cc4s3)c(C(F)(F)F)c2)cn1 (stereo not shown) [Compound 132168]")
"5.88 h"

* * *

Target: α-synuclein (Homo sapiens (Human), UniProt P37840)
IC50 values, listed per item
Endpoint label: IC50 (µM)

>>> test_result("O=C1CCC(N2Cc3cc(OCCCC(=O)Nc4ccc(-c5ccc(-c6cc7ccncc7[nH]6)cc5)cn4)ccc3C2=O)C(=O)N1 (stereo not drawn)")
0.04
>>> test_result("O=C1CCC(N2Cc3cc(OCCOCCNc4cc(-c5ccc(-c6nc7ccc(F)cc7s6)c(C(F)(F)F)c5)ccn4)ccc3C2=O)C(=O)N1 (stereo not drawn)")
10

* * *

Test: In vivo pharmacokinetic study
Conditions: mouse; Plasma, 10 mg/kg intravenous, mice
Endpoint label: AUC(0-t) (µg·h/mL)

>>> test_result("CN(C)c1ccc(-c2ccc(-c3nc4ccc(NCCCCCOc5ccc6c(c5)CN(C5CCC(=O)NC5=O)C6=O)cc4s3)c(C(F)(F)F)c2)cn1 (stereo not shown)")
17.8

* * *

Target: α-synuclein aggregates (Homo sapiens (Human), UniProt P37840)
Test: ReNcell VM α-synuclein aggregation assay
Type: cell-based
Conditions: ReNcell VM cells; read-out: Activity (DC50, concentration at which 50% of α-synuclein aggregates has been degraded)
Recorded DC50 by entry
Endpoint label: DC50

>>> test_result("CN(C)c1ccc2nc(-c3ccc(-c4ccc(NCCOCCOc5ccc6c(c5)C(=O)N(C5CCC(=O)NC5=O)C6=O)nc4)cc3)sc2c1 (stereo not drawn) [Compound 161177]")
"> 10 µM"
>>> test_result("O=C1CCC(N2Cc3cc(OCCCC(=O)Nc4ccc(-c5ccc(-c6cc7ccncc7[nH]6)cc5)cn4)ccc3C2=O)C(=O)N1 (stereo not drawn)")
"> 10 µM"
>>> test_result("Cc1ncsc1-c1ccc(CNC(=O)[C@@H]2C[C@@H](O)CN2C(=O)[C@@H](NC(=O)COCCOCCOc2ccc3nc(-c4ccc(-c5ccc(N(C)C)nc5)cc4C(F)(F)F)sc3c2)C(C)(C)C)cc1")
"> 10 µM"
>>> test_result("CN1C(=O)CCC(N2Cc3cc(OCCOCCOc4ccc5nc(-c6ccc(-c7ccc(N(C)C)nc7)cc6)sc5c4)ccc3C2=O)C1=O (stereo not drawn)")
"> 10 µM"
>>> test_result("O=C1CCC(N2Cc3cc(OCCOCCNc4cc(-c5ccc(-c6cn7ccccc7n6)cc5)ccn4)ccc3C2=O)C(=O)N1 (stereo not drawn)")
"> 10 µM"
>>> test_result("CN(C)c1ccc(-c2ccc(-c3nc4ccc(NCCOCCN5C(=O)CCC(N6Cc7c(N)cccc7C6=O)C5=O)cc4s3)cc2)cn1 (stereo not drawn)")
"> 10 µM"
